Value source: ChEMBL document CHEMBL4130590

biological target: Serine/threonine-protein kinase PknB (Mycobacterium tuberculosis, UniProt P9WI81); experiment: Inhibition of Mycobacterium tuberculosis PknB (M1 to G279 residues) expressed in Escherichia coli BL21 (DE3) cells using [T-33P]ATP as substrate after 50 mins in presence of GarA by liquid scintillation method
Sequence (P9WI81 whole entry, the tested form may be a part): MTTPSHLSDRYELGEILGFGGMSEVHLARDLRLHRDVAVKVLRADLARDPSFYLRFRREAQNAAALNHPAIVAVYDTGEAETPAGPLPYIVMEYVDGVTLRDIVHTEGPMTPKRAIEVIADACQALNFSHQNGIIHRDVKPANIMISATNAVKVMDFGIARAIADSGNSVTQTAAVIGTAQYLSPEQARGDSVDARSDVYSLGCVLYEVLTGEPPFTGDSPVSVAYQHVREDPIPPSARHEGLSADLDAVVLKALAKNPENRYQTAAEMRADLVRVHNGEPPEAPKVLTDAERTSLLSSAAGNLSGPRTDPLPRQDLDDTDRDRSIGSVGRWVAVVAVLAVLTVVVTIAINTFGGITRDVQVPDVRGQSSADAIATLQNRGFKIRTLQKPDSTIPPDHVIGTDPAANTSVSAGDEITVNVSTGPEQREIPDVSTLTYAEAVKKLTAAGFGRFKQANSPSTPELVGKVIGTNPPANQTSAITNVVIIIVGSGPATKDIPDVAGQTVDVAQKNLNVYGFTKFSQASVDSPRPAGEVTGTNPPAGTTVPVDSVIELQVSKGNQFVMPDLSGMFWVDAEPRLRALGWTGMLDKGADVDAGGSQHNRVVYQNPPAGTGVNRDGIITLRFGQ
ATTRIBUTE_MEASURED: Ki

INSERT INTO measurements (item_smiles, result) VALUES
  ('Clc1ccc2nc(NC3CCC3)nc(Nc3cc(C4CC4)[nH]n3)c2c1', '72 nM'),
  ('NS(=O)(=O)c1cccc(-c2nc(Nc3cc(C4CC4)[nH]n3)c3cc(Cl)ccc3n2)c1', '6 nM'),
  ('N#Cc1cccc(-c2nc(Nc3cc(C4CC4)[nH]n3)c3ccccc3n2)c1', '40 nM'),
  ('NS(=O)(=O)c1cccc(-c2ncc(Cl)c(Nc3cc(C4CC4)[nH]n3)n2)c1', '17 nM'),
  ('Cc1cnc(-c2ccc(S(N)(=O)=O)s2)nc1Nc1cc(C2CC2)n(C)n1', '> 4000 nM');

====

biological target: Serine/threonine-protein kinase PknB (Mycobacterium tuberculosis); experiment: Inhibition of Mycobacterium tuberculosis PknB (M1 to G279 residues) expressed in Escherichia coli BL21 (DE3) cells using [T-33P]ATP as substrate after 50 mins in presence of GarA by liquid scintillation method
pKi: −log10 of the molar value.
ATTRIBUTE_MEASURED: pKi

INSERT INTO assay_data (item_smiles, comparator, readout_number) VALUES
  ('N#CCc1ccc(-c2nc(Nc3cc(C4CC4)[nH]n3)c3cc(Cl)ccc3n2)cc1', '=', 8.30),
  ('COC(=O)N1CCCN(c2nc(Nc3cc(C4CC4)[nH]n3)c3cc(Cl)ccc3n2)CC1', '=', 6.64),
  ('COc1ccc2nc(N3CCCCCC3)nc(Nc3cc(C4CC4)[nH]n3)c2c1', '=', 7.09),
  ('NS(=O)(=O)c1ccc(-c2ncc(Cl)c(Nc3cc(C4CC4)[nH]n3)n2)s1', '>', 8.89),
  ('OCc1cccc(-c2nc(Nc3cc(C4CC4)[nH]n3)c3cc(Cl)ccc3n2)c1', '=', 7.64);

====

The following compounds are shown together with reported log10 of Ki values.
target: CDK2/Cyclin A2 (Homo sapiens, UniProt P24941); test: Inhibition of recombinant CDK2/cyclin A (unknown origin) using MAHHRSPRKRAKKK as substrate by pyruvate kinase-lactate dehydrogenase coupled assay
ATTRIBUTE_MEASURED: log10 of Ki (log10 of the value in nM)

INSERT INTO assay_data (item_smiles, target_under_test, readout_number) VALUES
  ('N#Cc1ccc(-c2nc(Nc3cc(C4CC4)[nH]n3)c3ccccc3n2)cc1', 'CDK2/Cyclin A2 (Homo sapiens, UniProt P24941)', 2.15),
  ('N#Cc1cccc(-c2nc(Nc3cc(C4CC4)[nH]n3)c3ccccc3n2)c1', 'CDK2/Cyclin A2 (Homo sapiens, UniProt P24941)', 1.04),
  ('N#Cc1cccc(-c2nc(Nc3cc(C4CC4)[nH]n3)c3cc(Cl)ccc3n2)c1', 'CDK2/Cyclin A2 (Homo sapiens, UniProt P24941)', 2.88),
  ('N#Cc1ccc(-c2nc(Nc3cc(C4CC4)[nH]n3)c3cc(Cl)ccc3n2)cc1', 'CDK2/Cyclin A2 (Homo sapiens, UniProt P24941)', 2.23),
  ('NS(=O)(=O)c1ccc(-c2ncc(Cl)c(Nc3cc(C4CC4)[nH]n3)n2)s1', 'CDK2/Cyclin A2 (Homo sapiens, UniProt P24941)', 1.23),
  ('NS(=O)(=O)c1ccc(-c2nccc(Nc3cc(C4CC4)[nH]n3)n2)s1', 'CDK2/Cyclin A2 (Homo sapiens, UniProt P24941)', 0.85);
